Tested on: BT-549 breast
Experiment: NCI-60 one-dose screen, 48 h (100 = growth as untreated, 0 = no growth, -100 = all killed)
Settings: 10 µM unless noted
The panel holds about 83,000 compounds, 20% with a hit somewhere; the sample as a whole holds those more often.
Returns: string. Value is 1 (yes) if measured growth is below 40%, and 0 (no) if it is greater than or equal to it.

compound: N#CC1=C(c2ccco2)Nc2c(c(-c3ccccc3)nn2-c2ccccc2)C12C(=O)Nc1ccc(Cl)cc12 (stereo not drawn)
label: 1 (yes)
--
compound: O=C(N/N=C/c1c[nH]c2ccccc12)Nc1ccccc1Cl
label: 1 (yes)
--
compound: CCOc1ccc(-c2cc(-c3cc(C(C)C)c(O)cc3C)nn2-c2ccc(S(N)(=O)=O)cc2)cc1
label: 1 (yes)
--
compound: COc1cncc(-c2ccc3ncnc(N4CCc5ccc(Cl)cc54)c3c2)c1
label: 1 (yes)
--
compound: COc1cc(CNC(=O)C[C@H](C)CCC=C(C)C)ccc1OCc1cn(-c2ccc(Br)cc2)nn1
label: 0 (no)
--
compound: COC(=O)c1cc(C(C)=O)n2c3ccccc3c3ccccc3c12
label: 1 (yes)
--
compound: Nc1nnc(-c2cncc(Br)c2)c(-c2c[nH]c3ccc(Br)cc23)n1
label: 0 (no)
--
compound: Cc1cc(C(NC(=O)C2CC3(CC(Nc4cccc5c4C(=O)N(C4CCC(=O)NC4=O)C5=O)C3)C2)c2ccc3c(c2)OC(F)(F)O3)c(O)c2ncccc12 (stereo not drawn)
label: 1 (yes)
--
compound: CN(C)CCCc1ccc(Nc2cnn(C)c(=O)c2Cl)cc1
label: 0 (no)
--
compound: O=C(NN1C(=O)/C(=C/C=C/c2ccc([N+](=O)[O-])o2)SC1=S)c1ccc([N+](=O)[O-])cc1
label: 1 (yes)
--
compound: CC1=C(C(=O)Nc2ccccc2)C(c2ccc3ccccc3c2)n2c(nc3ccccc32)N1 (stereo not drawn)
label: 0 (no)
--
compound: COc1ccc(NC(=O)Cn2c(/C=C/c3cccc(OC)c3)nc3ccccc3c2=O)cc1
label: 0 (no)
--
compound: CC1=C(C(=O)OCc2ccccc2)C(c2ccc(N(C)C)cc2)n2c(nc3ccccc32)N1 (stereo not drawn)
label: 0 (no)
--
compound: COc1cc(CNC(=O)[C@]23CCC(C)(C)CC2C2=CCC4[C@@]5(C)CCC(OC(C)=O)C(C)(C)C5CC[C@@]4(C)[C@]2(C)CC3)ccc1OCc1cn(-c2ccc(Cl)cc2Cl)nn1 (stereo partly drawn)
label: 0 (no)
--
compound: COc1cc(/C=C/C(=O)c2cnn(-c3cc(=O)[nH]c4ccccc34)c2C)cc(OC)c1OC
label: 1 (yes)
--
compound: COc1c(B(O)O)cccc1-c1nc2ccc3cn[nH]c3c2c2c1CCCC2
label: 1 (yes)
--
compound: COc1ccc(C(=O)c2cc(C(C)=O)c3c(C)cc(C)cn23)cc1
label: 1 (yes)

This collection of values is drawn from PubChem BioAssay (NCI).
